# Tested on: Staphylococcus aureus, USA 300
*1 amine or outer side, *2 acyl side, *3 side chain or, on linkers, in order; H or OH if unused. Where a SMILES comes first, the peptide text is derived from it. Bridges are numbered along the chain shown (N, C = ends). [ ]: non-standard residue; d: D form. The star is where a group is joined. ξ: configuration not given here. NH(1,3-benzodioxol-5-yl) = c1cc2c(cc1N*)OCO2; Phe(3,5-F2) = N[C@@H](Cc1cc(F)cc(F)c1)C(=O)O; NMepT = CN[C@H](C(=O)O)[C@@H](C)OP(=O)(O)O; NH(4-OCF3-phenyl) = FC(F)(F)Oc1ccc(N*)cc1; Morpholine(3S-CO) = O=C(O)[C@@H]1COCCN1; Pro(4S-Me) = C[C@@H]1CN[C@H](C(=O)O)C1; NH(4-Cl-2-F-phenyl) = Fc1cc(Cl)ccc1N*; Pro(4R-Me) = C[C@H]1CN[C@H](C(=O)O)C1; ξPro(4R-OH) = O=C(O)C1C[C@@H](O)CN1; ξPro(4S-Me) = C[C@@H]1CNC(C(=O)O)C1; Hyp = O=C(O)[C@@H]1C[C@@H](O)CN1; NH(4-Me-phenyl) = Cc1ccc(N*)cc1; aThr = C[C@H](O)[C@H](N)C(=O)O; Pip = O=C(O)[C@@H]1CCCCN1; NMeA = CN[C@@H](C)C(=O)O; CO = O=C([*:1])[*:2]
# thresholds on MIC define classes: bin 1 = under 0.1 µM, bin 2 = from 0.1 µM up to 0.8 µM, bin 3 = 0.8 µM and over

compound	label
C[C@@H]1C[C@H]2C(=O)O[C@@H](C)[C@H](NC(=O)[C@H](Cc3cc(F)cc(F)c3)NC(=O)Nc3ccc4c(c3)OCO4)C(=O)N3CCC[C@H]3C(=O)N3CCCC[C@H]3C(=O)N[C@@H](C)C(=O)N2C1 [Compound 198] ({NH(1,3-benzodioxol-5-yl)-CO}-[Phe(3,5-F2)][aThr]P[Pip]A[Pro(4R-Me)]; ester 2-C)	bin 1
Cc1ccc(NC(=O)N[C@@H](Cc2cc(F)cc(F)c2)C(=O)N[C@H]2COC(=O)C3C[C@H](C)CN3C(=O)[C@H](C)NC(=O)C3CCCCN3C(=O)C3CCCN3C2=O)cc1 (stereo partly shown) [Compound 45]	bin 2
C[C@H]1C[C@H]2C(=O)O[C@@H](C)[C@H](NC(=O)[C@H](Cc3cc(F)cc(F)c3)NC(=O)Nc3ccc(OC(F)(F)F)cc3)C(=O)N3CCC[C@H]3C(=O)N3CCOC[C@H]3C(=O)N[C@@H](C)C(=O)N2C1 [Compound 201] ({NH(4-OCF3-phenyl)-CO}-[Phe(3,5-F2)][aThr]P[Morpholine(3S-CO)]A[Pro(4S-Me)]; ester 2-C)	bin 1
Cc1ccc(NC(=O)N[C@@H](Cc2cc(F)cc(F)c2)C(=O)N[C@@H]2C(=O)N3CCC[C@H]3C(=O)N(C)[C@@H]([C@@H](C)OP(=O)(O)O)C(=O)N[C@@H](C)C(=O)N3C[C@@H](C)C[C@H]3C(=O)O[C@H]2C)cc1 [Compound 188] ({NH(4-Me-phenyl)-CO}-[Phe(3,5-F2)][aThr]P[NMepT]A[Pro(4S-Me)]; ester 2-C)	bin 3
C[C@H]1CC2C(=O)O[C@@H](C)[C@H](NC(=O)[C@H](Cc3cc(F)cc(F)c3)NC(=O)Nc3ccc(OC(F)(F)F)cc3)C(=O)N3C[C@H](O)CC3C(=O)N(C)[C@@H](C)C(=O)N[C@@H](C)C(=O)N2C1 (stereo partly drawn) [Compound 32] ({NH(4-OCF3-phenyl)-CO}-[Phe(3,5-F2)][aThr][ξPro(4R-OH)][NMeA]A[ξPro(4S-Me)]; ester 2-C)	bin 2
Cc1ccc(NC(=O)N[C@@H](Cc2cc(F)cc(F)c2)C(=O)N[C@H]2COC(=O)[C@@H]3C[C@@H](C)CN3C(=O)[C@H](C)NC(=O)[C@@H]3COCCN3C(=O)[C@@H]3C[C@@H](O)CN3C2=O)cc1 [Compound 317] ({NH(4-Me-phenyl)-CO}-[Phe(3,5-F2)]S[Hyp][Morpholine(3S-CO)]A[Pro(4R-Me)]; ester 2-C)	bin 3
C[C@@H]1C[C@H]2C(=O)O[C@@H](C)[C@H](NC(=O)[C@H](Cc3cc(F)cc(F)c3)NC(=O)Nc3ccc(Cl)cc3F)C(=O)N3CCC[C@H]3C(=O)N3CCCC[C@H]3C(=O)N[C@@H](C)C(=O)N2C1 [Compound 307] ({NH(4-Cl-2-F-phenyl)-CO}-[Phe(3,5-F2)][aThr]P[Pip]A[Pro(4R-Me)]; ester 2-C)	bin 1

* * *

# System: Vero (kidney epithelial cells; ATCC CCL-81)
# assay_comment: Cytotoxicity assay (CellTiter-Glo cell viability, 72 hours)
# Assay type: cell-based
# condition_label: Vero cells, 72 hours, growth inhibition; read-out: Cytotoxicity IC50
pIC50: −log10 of the molar value. *1 amine or outer side, *2 acyl side, *3 side chain or, on linkers, in order; H or OH if unused. Where a SMILES comes first, the peptide text is derived from it. Bridges are numbered along the chain shown (N, C = ends). [ ]: non-standard residue; d: D form. The star is where a group is joined. ξ: configuration not given here. Phe(3,5-F2) = N[C@@H](Cc1cc(F)cc(F)c1)C(=O)O; Pro(4S-Me) = C[C@@H]1CN[C@H](C(=O)O)C1; ξPro(4S-Me) = C[C@@H]1CNC(C(=O)O)C1; NH(4-Me-phenyl) = Cc1ccc(N*)cc1; aThr = C[C@H](O)[C@H](N)C(=O)O; X5 = O=C(C1COCCN1[*:1])[*:2]; Pip = O=C(O)[C@@H]1CCCCN1; NMeA = CN[C@@H](C)C(=O)O; CO = O=C([*:1])[*:2]; ξP = O=C(O)C1CCCN1
Listed compounds paired with reported pIC50

compound	pIC50
Cc1ccc(NC(=O)N[C@@H](Cc2cc(F)cc(F)c2)C(=O)N[C@@H]2C(=O)N3CCC[C@H]3C(=O)N3CCCC[C@H]3C(=O)N[C@@H](C)C(=O)N3C[C@@H](C)C[C@H]3C(=O)O[C@H]2C)cc1 [Compound 18] ({NH(4-Me-phenyl)-CO}-[Phe(3,5-F2)][aThr]P[Pip]A[Pro(4S-Me)]; ester 2-C)	4.57
Cc1ccc(NC(=O)N[C@@H](Cc2cc(F)cc(F)c2)C(=O)N[C@@H]2C(=O)N3CCCC3C(=O)N3CCOCC3C(=O)N[C@@H](C)C(=O)N3C[C@@H](C)CC3C(=O)O[C@H]2C)cc1 (stereo partly drawn) [Compound 33] ({NH(4-Me-phenyl)-CO}-[Phe(3,5-F2)][aThr][ξP][X5]A[ξPro(4S-Me)]; ester 2-C)	4.39
Cc1ccc(NC(=O)N[C@@H](Cc2cc(F)cc(F)c2)C(=O)N[C@@H]2C(=O)N3CCCC3C(=O)N(C)[C@@H](C)C(=O)N[C@@H](C)C(=O)N3C[C@@H](C)CC3C(=O)O[C@H]2C)cc1 (stereo partly drawn) [Compound 26] ({NH(4-Me-phenyl)-CO}-[Phe(3,5-F2)][aThr][ξP][NMeA]A[ξPro(4S-Me)]; ester 2-C)	4.39

* * *

This section lists MIC readings for Staphylococcus aureus, USA 300.
*1 amine or outer side, *2 acyl side, *3 side chain or, on linkers, in order; H or OH if unused. Where a SMILES comes first, the peptide text is derived from it. Bridges are numbered along the chain shown (N, C = ends). [ ]: non-standard residue; d: D form. The star is where a group is joined. NH(1,3-benzodioxol-5-yl) = c1cc2c(cc1N*)OCO2; Phe(3,5-F2) = N[C@@H](Cc1cc(F)cc(F)c1)C(=O)O; Pro(4R-Me) = C[C@H]1CN[C@H](C(=O)O)C1; NMeT = CN[C@H](C(=O)O)[C@@H](C)O; aThr = C[C@H](O)[C@H](N)C(=O)O; Pip = O=C(O)[C@@H]1CCCCN1; X3 = Cn1ccc2ccc(N*)cc21; X4 = c1cc2c(cc1N*)CCC2; CO = O=C([*:1])[*:2]

compound	target	MIC (µM)
C[C@@H]1C[C@H]2C(=O)O[C@@H](C)[C@H](NC(=O)[C@H](Cc3cc(F)cc(F)c3)NC(=O)Nc3ccc4c(c3)CCC4)C(=O)N3CCC[C@H]3C(=O)N3CCCC[C@H]3C(=O)N[C@@H](C)C(=O)N2C1 [Compound 302] ({X4-CO}-[Phe(3,5-F2)][aThr]P[Pip]A[Pro(4R-Me)]; ester 2-C)	Staphylococcus aureus, USA 300	0.059
C[C@@H]1C[C@H]2C(=O)O[C@@H](C)[C@H](NC(=O)[C@H](Cc3cc(F)cc(F)c3)NC(=O)Nc3ccc4c(c3)OCO4)C(=O)N3CCC[C@H]3C(=O)N(C)[C@@H]([C@@H](C)O)C(=O)N[C@@H](C)C(=O)N2C1 [Compound 197] ({NH(1,3-benzodioxol-5-yl)-CO}-[Phe(3,5-F2)][aThr]P[NMeT]A[Pro(4R-Me)]; ester 2-C)	Staphylococcus aureus, USA 300	0.078
C[C@@H]1C[C@H]2C(=O)O[C@@H](C)[C@H](NC(=O)[C@H](Cc3cc(F)cc(F)c3)NC(=O)Nc3ccc4ccn(C)c4c3)C(=O)N3CCC[C@H]3C(=O)N3CCCC[C@H]3C(=O)N[C@@H](C)C(=O)N2C1 [Compound 306] ({X3-CO}-[Phe(3,5-F2)][aThr]P[Pip]A[Pro(4R-Me)]; ester 2-C)	Staphylococcus aureus, USA 300	0.156
Cc1ccc(NC(=O)N[C@@H](Cc2cc(F)cc(F)c2)C(=O)N[C@H]2COC(=O)C3C[C@H](C)CN3C(=O)[C@H](C)NC(=O)C3CCCCN3C(=O)C3CCCN3C2=O)cc1C (stereo partly shown) [Compound 48]	Staphylococcus aureus, USA 300	1.6

Value source: patent US10457707B2
